# Protocol Summary: Solubility of the mesylate salt in different aqueous media (Example 7)
# Type: physicochemical
# Reported Conditions: 0.9% NaCl solution, saline or isotonic, thermodynamic from solid
Counter-ions that a name gives are not always drawn.
Readout Name: solubility (mg/mL)

- Compound: "CCNC(=O)c1noc(-c2cc(C(C)C)c(O)cc2O)c1-c1ccc(CN2CCOCC2)cc1 [mesylate salt]"
  Readout Name: "solubility"
  Unit String: "mg/mL"
  Reported: 12.8

---

# Protocol Summary: Solubility of the mesylate salt in different aqueous media (Example 7)
# Assay type: physicochemical
# Reported Conditions: aqueous buffer, thermodynamic from solid; buffer pH 8.0 (borate buffer)
Where a name gives a salt, the structure may show the parent alone.

- Molecule: "CCNC(=O)c1noc(-c2cc(C(C)C)c(O)cc2O)c1-c1ccc(CN2CCOCC2)cc1 [mesylate salt]"
  Unit String: "µg/mL"
  solubility: 1800

---

# Protocol Summary: Solubility of the mesylate salt in different aqueous media (Example 7)
# Assay type: physicochemical
# Reported Conditions: 5% glucose solution, saline or isotonic, thermodynamic from solid
Structures can show the parent of a compound that is named as a salt.
Readout Name: solubility (mg/mL)

- Molecule: "CCNC(=O)c1noc(-c2cc(C(C)C)c(O)cc2O)c1-c1ccc(CN2CCOCC2)cc1 [mesylate salt]"
  Readout Name: "solubility"
  Reported: 39
